Attribute: EC50
Tested on: A2780
Experiment: Cytotoxicity against human A2780 cells after 96 hrs by SRB assay
Format: functional, cell-based
Settings: A2780, 96 h
outcome-measure: EC50 (nM)

chemical_smiles=CCN(CC)c1ccc2c(-c3ccccc3C(=O)N3CCN(C(=O)[C@]45CCC(C)(C)C[C@H]4C4=CC[C@@H]6[C@@]7(C)CC[C@H](OC(C)=O)C(C)(C)[C@@H]7CC[C@@]6(C)[C@]4(C)CC5)CC3)c3ccc(=[N+](CC)CC)cc-3oc2c1 assay_system=A2780 outcome_measure=EC50 comparison_operator== quantitative_readout=32
chemical_smiles=C=C(C)[C@@H]1CC[C@]2(C(=O)N3CCN(C(=O)c4ccccc4-c4c5ccc(=[N+](CC)CC)cc-5oc5cc(N(CC)CC)ccc45)CC3)CC[C@]3(C)[C@H](CC[C@@H]4[C@@]5(C)CC[C@H](OC(C)=O)C(C)(C)[C@@H]5CC[C@]43C)[C@@H]12 assay_system=A2780 outcome_measure=EC50 comparison_operator== quantitative_readout=50
chemical_smiles=CC(=O)O[C@H]1CC[C@]2(C)[C@H]3CC=C4[C@@H]5[C@@H](C)[C@H](C)CC[C@]5(C(=O)N5CCNCC5)CC[C@@]4(C)[C@]3(C)CC[C@H]2C1(C)C assay_system=A2780 outcome_measure=EC50 comparison_operator== quantitative_readout=2100
chemical_smiles=CC(=O)O[C@H]1CC[C@]2(C)[C@H]3C(=O)C=C4[C@@H]5C[C@@](C)(C(=O)N6CCNCC6)CC[C@]5(C)CC[C@@]4(C)[C@]3(C)CC[C@H]2C1(C)C assay_system=A2780 outcome_measure=EC50 comparison_operator== quantitative_readout=8200
chemical_smiles=CCN(CC)c1ccc2c(-c3ccccc3C(=O)O)c3ccc(=[N+](CC)CC)cc-3oc2c1 assay_system=A2780 outcome_measure=EC50 comparison_operator=> quantitative_readout=30000

---

Test system: A2780
Test: Cytotoxicity against human A2780 cells after 96 hrs by SRB assay
Type: functional, cell-based
Details: A2780, 96 h
As shown below, each of these molecules has a reported EC50 value.
outcome-measure: EC50 (nM)

chemical_smiles=CCN(CC)c1ccc2c(-c3ccccc3C(=O)N3CCN(C(=O)[C@]45CC[C@@H](C)[C@H](C)[C@H]4C4=CC[C@@H]6[C@@]7(C)CC[C@H](OC(C)=O)C(C)(C)[C@@H]7CC[C@@]6(C)[C@]4(C)CC5)CC3)c3ccc(=[N+](CC)CC)cc-3oc2c1 unit=nM comparison_operator== quantitative_readout=38
chemical_smiles=CCN(CC)c1ccc2c(-c3ccccc3C(=O)N3CCN(C(=O)[C@]45CC[C@@H](C(C)=O)[C@@H]4[C@H]4CC[C@@H]6[C@@]7(C)CC[C@H](OC(C)=O)C(C)(C)[C@@H]7CC[C@@]6(C)[C@]4(C)CC5)CC3)c3ccc(=[N+](CC)CC)cc-3oc2c1 unit=nM comparison_operator== quantitative_readout=36
chemical_smiles=CC1(C)CC[C@]2(C(=O)O)CC[C@]3(C)C(=CC[C@@H]4[C@@]5(C)C[C@@H](O)[C@H](O)C(C)(C)[C@@H]5CC[C@]43C)[C@@H]2C1 unit=nM comparison_operator== quantitative_readout=19500
chemical_smiles=CC1(C)[C@@H](O)CC[C@]2(C)[C@H]3C(=O)C=C4[C@@H]5C[C@@](C)(C(=O)O)CC[C@]5(C)CC[C@@]4(C)[C@]3(C)CC[C@@H]12 unit=nM comparison_operator=> quantitative_readout=30000

---

Test system: MCF7
Test: Cytotoxicity against human MCF7 cells after 96 hrs by SRB assay
Assay type: functional, cell-based
Details: MCF7, 96 h
outcome-measure: EC50 (nM)

chemical_smiles=CCN(CC)c1ccc2c(-c3ccccc3C(=O)N3CCN(C(=O)[C@]45CC[C@@H](C)[C@H](C)[C@H]4C4=CC[C@@H]6[C@@]7(C)CC[C@H](OC(C)=O)C(C)(C)[C@@H]7CC[C@@]6(C)[C@]4(C)CC5)CC3)c3ccc(=[N+](CC)CC)cc-3oc2c1 assay_system=MCF7 unit=nM comparison_operator== quantitative_readout=75
chemical_smiles=CC1(C)[C@@H](O)CC[C@]2(C)[C@H]3C(=O)C=C4[C@@H]5C[C@@](C)(C(=O)O)CC[C@]5(C)CC[C@@]4(C)[C@]3(C)CC[C@@H]12 assay_system=MCF7 unit=nM comparison_operator=> quantitative_readout=30000
chemical_smiles=CC(=O)[C@@H]1CC[C@]2(C(=O)O)CC[C@]3(C)[C@H](CC[C@@H]4[C@@]5(C)CC[C@H](O)C(C)(C)[C@@H]5CC[C@]43C)[C@@H]12 assay_system=MCF7 unit=nM comparison_operator=> quantitative_readout=30000
chemical_smiles=CCN(CC)c1ccc2c(-c3ccccc3C(=O)N3CCN(C(=O)[C@]45CCC(C)(C)C[C@H]4C4=CC[C@@H]6[C@@]7(C)C[C@@H](OC(C)=O)[C@H](OC(C)=O)C(C)(C)[C@@H]7CC[C@@]6(C)[C@]4(C)CC5)CC3)c3ccc(=[N+](CC)CC)cc-3oc2c1.[Cl-] assay_system=MCF7 unit=nM comparison_operator== quantitative_readout=28
chemical_smiles=CC(=O)O[C@H]1CC[C@]2(C)[C@H]3CC=C4[C@@H]5[C@@H](C)[C@H](C)CC[C@]5(C(=O)N5CCNCC5)CC[C@@]4(C)[C@]3(C)CC[C@H]2C1(C)C assay_system=MCF7 unit=nM comparison_operator== quantitative_readout=2000
chemical_smiles=CC1(C)CC[C@]2(C(=O)O)CC[C@]3(C)C(=CC[C@@H]4[C@@]5(C)CC[C@H](O)C(C)(C)[C@@H]5CC[C@]43C)[C@@H]2C1 assay_system=MCF7 unit=nM comparison_operator=> quantitative_readout=30000
chemical_smiles=CCN(CC)c1ccc2c(-c3ccccc3C(=O)N3CCN(C(=O)[C@]45CCC(C)(C)C[C@H]4C4=CC[C@@H]6[C@@]7(C)CC[C@H](OC(C)=O)C(C)(C)[C@@H]7CC[C@@]6(C)[C@]4(C)CC5)CC3)c3ccc(=[N+](CC)CC)cc-3oc2c1 assay_system=MCF7 unit=nM comparison_operator== quantitative_readout=62
chemical_smiles=CCN(CC)c1ccc2c(-c3ccccc3C(=O)O)c3ccc(=[N+](CC)CC)cc-3oc2c1 assay_system=MCF7 unit=nM comparison_operator=> quantitative_readout=30000
chemical_smiles=CC(=O)O[C@H]1CC[C@]2(C)[C@H]3C(=O)C=C4[C@@H]5C[C@@](C)(C(=O)N6CCNCC6)CC[C@]5(C)CC[C@@]4(C)[C@]3(C)CC[C@H]2C1(C)C assay_system=MCF7 unit=nM comparison_operator== quantitative_readout=8400

---

Tested on: MCF7
Experiment: Cytotoxicity against human MCF7 cells after 96 hrs by SRB assay
Format: functional, cell-based
Conditions: MCF7, 96 h
outcome-measure: EC50 (nM)

chemical_smiles=C=C(C)[C@@H]1CC[C@]2(C(=O)N3CCN(C(=O)c4ccccc4-c4c5ccc(=[N+](CC)CC)cc-5oc5cc(N(CC)CC)ccc45)CC3)CC[C@]3(C)[C@H](CC[C@@H]4[C@@]5(C)CC[C@H](OC(C)=O)C(C)(C)[C@@H]5CC[C@]43C)[C@@H]12 assay_system=MCF7 outcome_measure=EC50 unit=nM quantitative_readout=81
chemical_smiles=CC(=O)O[C@H]1CC[C@]2(C)[C@H]3CC[C@@H]4[C@H]5[C@H](C(C)=O)CC[C@]5(C(=O)N5CCNCC5)CC[C@@]4(C)[C@]3(C)CC[C@H]2C1(C)C assay_system=MCF7 outcome_measure=EC50 unit=nM quantitative_readout=2800

---

System: A2780
Assay: Cytotoxicity against human A2780 cells after 96 hrs by SRB assay
Assay type: functional, cell-based
Details: A2780, 96 h
outcome-measure: EC50

chemical_smiles=CC(=O)O[C@H]1CC[C@]2(C)[C@H]3CC=C4[C@@H]5CC(C)(C)CC[C@]5(C(=O)N5CCNCC5)CC[C@@]4(C)[C@]3(C)CC[C@H]2C1(C)C assay_system=A2780 outcome_measure=EC50 result="1.7 µM"
chemical_smiles=C=C(C)[C@@H]1CC[C@]2(C(=O)N3CCNCC3)CC[C@]3(C)[C@H](CC[C@@H]4[C@@]5(C)CC[C@H](OC(C)=O)C(C)(C)[C@@H]5CC[C@]43C)[C@@H]12 assay_system=A2780 outcome_measure=EC50 result="1.9 µM"
chemical_smiles=CC(=O)[C@@H]1CC[C@]2(C(=O)O)CC[C@]3(C)[C@H](CC[C@@H]4[C@@]5(C)CC[C@H](O)C(C)(C)[C@@H]5CC[C@]43C)[C@@H]12 assay_system=A2780 outcome_measure=EC50 result="> 30 µM"

---

Recorded measurements of EC50, one per entry
Test system: MCF7
Assay: Cytotoxicity against human MCF7 cells after 96 hrs by SRB assay
Assay type: functional, cell-based
Conditions: MCF7, 96 h
outcome-measure: EC50 (nM)

chemical_smiles=CC(=O)O[C@@H]1C[C@]2(C)[C@H]3CC=C4[C@@H]5CC(C)(C)CC[C@]5(C(=O)N5CCNCC5)CC[C@@]4(C)[C@]3(C)CC[C@H]2C(C)(C)[C@H]1OC(C)=O comparison_operator== quantitative_readout=1000
chemical_smiles=CC1(C)CC[C@]2(C(=O)O)CC[C@]3(C)C(=CC[C@@H]4[C@@]5(C)C[C@@H](O)[C@H](O)C(C)(C)[C@@H]5CC[C@]43C)[C@@H]2C1 comparison_operator=> quantitative_readout=30000
chemical_smiles=CCN(CC)c1ccc2c(-c3ccccc3C(=O)N3CCN(C(=O)[C@]45CC[C@@H](C(C)=O)[C@@H]4[C@H]4CC[C@@H]6[C@@]7(C)CC[C@H](OC(C)=O)C(C)(C)[C@@H]7CC[C@@]6(C)[C@]4(C)CC5)CC3)c3ccc(=[N+](CC)CC)cc-3oc2c1 comparison_operator== quantitative_readout=70
chemical_smiles=C=C(C)[C@@H]1CC[C@]2(C(=O)N3CCNCC3)CC[C@]3(C)[C@H](CC[C@@H]4[C@@]5(C)CC[C@H](OC(C)=O)C(C)(C)[C@@H]5CC[C@]43C)[C@@H]12 comparison_operator== quantitative_readout=1400
chemical_smiles=CC(=O)O[C@H]1CC[C@]2(C)[C@H]3CC=C4[C@@H]5CC(C)(C)CC[C@]5(C(=O)N5CCNCC5)CC[C@@]4(C)[C@]3(C)CC[C@H]2C1(C)C comparison_operator== quantitative_readout=1700
